Biological target: PKC zeta (Homo sapiens, UniProt Q05513)
Sequence (Q05513 whole entry): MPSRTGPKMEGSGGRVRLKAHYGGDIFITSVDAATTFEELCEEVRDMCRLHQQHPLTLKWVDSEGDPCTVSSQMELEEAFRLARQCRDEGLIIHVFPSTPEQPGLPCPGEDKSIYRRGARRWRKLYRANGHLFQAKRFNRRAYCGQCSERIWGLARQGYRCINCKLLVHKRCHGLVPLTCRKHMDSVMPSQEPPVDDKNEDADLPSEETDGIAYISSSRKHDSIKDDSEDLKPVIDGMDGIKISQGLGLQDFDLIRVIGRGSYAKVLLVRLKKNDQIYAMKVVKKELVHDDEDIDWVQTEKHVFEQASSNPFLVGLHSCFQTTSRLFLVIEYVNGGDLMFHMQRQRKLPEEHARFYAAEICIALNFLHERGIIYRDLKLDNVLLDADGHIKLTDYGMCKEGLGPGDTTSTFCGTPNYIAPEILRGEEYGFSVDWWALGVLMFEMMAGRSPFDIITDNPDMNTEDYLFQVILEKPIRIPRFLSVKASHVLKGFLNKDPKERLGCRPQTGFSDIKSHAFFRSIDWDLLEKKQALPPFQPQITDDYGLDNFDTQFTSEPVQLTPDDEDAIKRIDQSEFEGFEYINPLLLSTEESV
recorded endpoint: IC50

Field request: IC50 | item: O=S(=O)(O)c1cc(O)c2c(S(=O)(=O)O)cc(S(=O)(=O)O)cc2c1 [NSA, 1-naphthol-3,6,8-trisulphonic acid]
100 to 200 nM
